system: phospho-histone H3 in NCI-H460 cells; experiment: Analysis of histone H3 phosphorylation in NCI-H460 cells (Cellomics); type: cell-based; conditions: Homo sapiens, synchronized H460 NSCLC cells, 1 h treatment, molecular phosphorylation assay, read-out: EC50 for reduction of phospho-histone H3
property label: EC50 (nM)

CCNC(=O)C#Cc1ccc2c(c1)NC(=O)/C2=C(\Nc1ccc(CN(C)C)cc1)c1ccccc1 [Compound A] ... 44
